METHOD_NOTES: Plasma concentration in Sprague-Dawley rat at 30 mg/kg, sc after 60 mins by quantitative microdialysis method
Format: ADME, organism-based
Parameters: dose 30 mg/kg, route subcutaneous
READOUT_TYPE: concentration at 1 h (µM)
Respond with the bare value in µM.

I am curious: what concentration at 1 h value has been reported for COc1cc(C(O)P(=O)(O)CC[C@H](N)C(=O)O)cc([N+](=O)[O-])c1O (mixture of isomers) ?
114

* * *

METHOD_NOTES: AUC (infinity) in Sprague-Dawley rat at 1 mg/kg, iv
Assay type: ADME, organism-based
Set-up: time infinity, dose 1 mg/kg, route intravenous
CONDITION: plasma
READOUT_TYPE: AUC(0-inf) (ng·h/mL)
Please state the figure in ng·h/mL; there is no need to write the unit.

Could you share which AUC(0-inf) value was measured for COc1cc(C(O)P(=O)(O)CC[C@H](N)C(=O)O)cc([N+](=O)[O-])c1O (mixture of isomers) ?
2800

* * *

ASSAY_TARGET: hERG (KCNH2) (Homo sapiens)
Sequence (Q12809 whole entry): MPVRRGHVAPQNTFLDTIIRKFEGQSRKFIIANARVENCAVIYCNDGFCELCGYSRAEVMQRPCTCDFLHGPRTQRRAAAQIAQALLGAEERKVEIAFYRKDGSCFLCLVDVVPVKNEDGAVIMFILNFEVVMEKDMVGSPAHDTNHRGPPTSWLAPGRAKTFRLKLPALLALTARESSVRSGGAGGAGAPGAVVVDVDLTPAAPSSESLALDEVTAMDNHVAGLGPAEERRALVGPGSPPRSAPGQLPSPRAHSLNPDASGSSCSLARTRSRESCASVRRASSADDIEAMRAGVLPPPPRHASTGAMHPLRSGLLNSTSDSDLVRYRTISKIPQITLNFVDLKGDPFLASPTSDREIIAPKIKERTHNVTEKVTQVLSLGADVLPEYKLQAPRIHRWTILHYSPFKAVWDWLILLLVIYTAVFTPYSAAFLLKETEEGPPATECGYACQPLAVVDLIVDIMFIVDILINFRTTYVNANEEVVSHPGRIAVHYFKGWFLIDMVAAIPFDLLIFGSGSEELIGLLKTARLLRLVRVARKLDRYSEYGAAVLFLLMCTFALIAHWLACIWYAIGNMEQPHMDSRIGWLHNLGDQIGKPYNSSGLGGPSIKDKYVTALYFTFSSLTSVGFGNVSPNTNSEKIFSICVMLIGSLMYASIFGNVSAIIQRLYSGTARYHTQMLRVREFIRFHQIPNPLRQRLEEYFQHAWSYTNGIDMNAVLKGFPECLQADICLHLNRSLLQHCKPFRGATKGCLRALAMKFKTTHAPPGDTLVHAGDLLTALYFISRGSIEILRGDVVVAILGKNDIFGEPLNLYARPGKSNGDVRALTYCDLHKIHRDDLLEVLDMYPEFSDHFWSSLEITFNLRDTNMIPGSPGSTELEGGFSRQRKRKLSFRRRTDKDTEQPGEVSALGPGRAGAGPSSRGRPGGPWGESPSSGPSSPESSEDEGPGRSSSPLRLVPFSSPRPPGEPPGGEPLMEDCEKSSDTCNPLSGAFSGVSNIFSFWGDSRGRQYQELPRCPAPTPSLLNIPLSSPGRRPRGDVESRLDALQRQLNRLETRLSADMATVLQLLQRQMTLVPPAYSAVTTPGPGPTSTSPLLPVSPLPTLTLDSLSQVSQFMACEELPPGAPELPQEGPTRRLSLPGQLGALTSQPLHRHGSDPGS
METHOD_NOTES: Inhibition of human ERG channel at 30 uM by ionworks assay
READOUT_TYPE: inhibition at 30 µM (%)
Numeric only. Scale: %

Using the record for COc1cc(C(O)P(=O)(O)CC[C@H](N)C(=O)O)cc([N+](=O)[O-])c1O (mixture of isomers) , report its inhibition at 30 µM.
14

* * *

METHOD_NOTES: Fraction unbound in mouse brain homogenates
Assay type: ADME, tissue-based
CONDITION: brain homogenate
READOUT_TYPE: fraction unbound

Item COc1cc(C(O)P(=O)(O)CC[C@H](N)C(=O)O)cc([N+](=O)[O-])c1O (mixture of isomers) has what recorded fraction unbound?
> 0.99

* * *

METHOD_NOTES: Kinetic aqueous solubility of the compound
Format: physicochemical
CONDITION: buffer; read-out: Kinetic_solubility
READOUT_TYPE: solubility kinetic

Given COc1cc(C(O)P(=O)(O)CC[C@H](N)C(=O)O)cc([N+](=O)[O-])c1O (mixture of isomers) , state its recorded solubility kinetic.
> 800 µM

* * *

METHOD_NOTES: Drug uptake in Sprague-Dawley rat ECF at 30 mg/kg, sc after 60 mins by quantitative microdialysis method
Type: ADME, organism-based
Design: dose 30 mg/kg, route subcutaneous
CONDITION: read-out: Drug uptake
READOUT_TYPE: concentration at 1 h (µM)
Give the value, in units of µM, as a plain number.

Please report the recorded concentration at 1 h for COc1cc(C(O)P(=O)(O)CC[C@H](N)C(=O)O)cc([N+](=O)[O-])c1O (mixture of isomers) .
9.8

* * *

METHOD_NOTES: AUC (infinity) in Sprague-Dawley rat at 10 mg/kg, po
Assay type: ADME, organism-based
Design: time infinity, dose 10 mg/kg, route oral
CONDITION: plasma
READOUT_TYPE: AUC(0-inf)
# output: numeric value plus its unit

// lookup AUC(0-inf) for COc1cc(C(O)P(=O)(O)CC[C@H](N)C(=O)O)cc([N+](=O)[O-])c1O (mixture of isomers)
200 ng·h/mL

* * *

METHOD_NOTES: Passive apparent permeability of the compound by PAMPA
Type: ADME
READOUT_TYPE: Papp

Given the compound COc1cc(C(O)P(=O)(O)CC[C@H](N)C(=O)O)cc([N+](=O)[O-])c1O (mixture of isomers) , what is its reported Papp?
< 0.1 ×10⁻⁶ cm/s
